// pEC50 lookup, one value per entry
Target Or System: human interleukin-2 receptor α-chain (IL-2Rα; CD25), recombinant protein (human) (UniProt P01589)
Sequence (P01589 22-240 limits assumed): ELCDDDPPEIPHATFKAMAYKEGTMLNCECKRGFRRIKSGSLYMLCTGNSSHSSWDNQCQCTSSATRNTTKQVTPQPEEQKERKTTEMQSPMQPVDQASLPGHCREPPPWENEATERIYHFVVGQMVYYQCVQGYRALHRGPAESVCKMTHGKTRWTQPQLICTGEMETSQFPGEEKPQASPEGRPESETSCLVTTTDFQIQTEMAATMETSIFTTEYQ
Test Method Notes: ELISA, monovalent VHH-hFc
pEC50 is defined as minus the log10 of a concentration measured in mol/L.

Examples from the recorded data:
2-MP01A02 VHH-hFc, monospecific monovalent (Fc fusion, part only; not given: Both Fc arms and linker, not shown: another chain or arm of the molecule; a dimerising Fc or GST; small tags and cut ends) VHH: QVQLVESGGGLVQPGGSLRLSCATSGFTFRNNFMSWVRQAPGKGLEWVSTISYGGESTTYAESVKGRFTISRDNAKNTLYLQMNNLKPEDTAVYYCAKATSYDSIRSGSRGQGTQVTVSS	10.13
4-MP01F04 VHH-hFc, monospecific monovalent (Fc fusion, part only; not given: Fc arms with stated mutations, not shown: another chain or arm of the molecule; a dimerising Fc or GST; small tags and cut ends) VHH: QVQLVESGGGLVQAGGSLRLSCAASGGTFRTRNMGWFRRAPGKEREFVAAVSWNVDNKLYADSVKGRFTISRDNGRNMVYLQMNSLKPEDTAVYYCAADNIPLSSDMRPTATEYDYWGQGTQVTVSS	10.11
3-MP01E03 VHH-hFc, monospecific monovalent (Fc fusion, part only; not given: Both Fc arms and linker, not shown: another chain or arm of the molecule; a dimerising Fc or GST; small tags and cut ends) VHH: QVQLVESGGGLVQAGGSLRLSCTASGRTLSSYSMAWFRQAADKGREFVTAISSSGVVTHVLDSVKGRFTISRDNAKNTVYLQMNSLQPEDTALYFCAGTASSYSTYEANYNYWGQGTLVTVSS	10.07

Please turn your attention to the following entry.
Request: Query (binder): 12-MP05B12 VHH-hFc, monospecific monovalent (Fc fusion, part only; not given: Both Fc arms and linker, not shown: another chain or arm of the molecule; a dimerising Fc or GST; small tags and cut ends) VHH: QVQLVESGGGLVQAGGSLRLSCAASGFTFDGYAIGWFRQAPGKEREGVSYITGSDGSTYYADSVKGRFTISSNNAKNTVYLHMNSLKPDDAAVYYCAIDRLGSRGAYVPIWWRSSDMDLWGKGTLVTVSS ; field requested: pEC50
Result: 9.89
